These measurements were taken from the supplement of paper PMC6757056.

For each record, write down the corresponding normalized RNA/DNA level with ligand (log10).
B1: library; a variant is named by its letters at N, in order (parent)
chain: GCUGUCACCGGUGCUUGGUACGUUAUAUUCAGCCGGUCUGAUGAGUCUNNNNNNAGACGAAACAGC

Variants of: B1
Test: normalized RNA/DNA level with ligand (relative to sTRSVctl = 100) (log10 (% of sTRSVctl)); HEK293T overexpressing SLC46A1; ligand concentration (+) RNA-Seq: 6 mM; higher = less ribozyme self-cleavage, higher mRNA level
Details: with (6R,S)-folinic acid; ligand present: yes
Respond numerically, and do not add a unit to the figure.

Value lookup for normalized RNA/DNA level with ligand (log10); key = `CGCUAC`
2.03

Value lookup for normalized RNA/DNA level with ligand (log10); key = `UGAAUG`
1.98

Value lookup for normalized RNA/DNA level with ligand (log10); key = `UAAGCU`
2.02

Value lookup for normalized RNA/DNA level with ligand (log10); key = `CCAUAU`
1.99

Value lookup for normalized RNA/DNA level with ligand (log10); key = `UAUAUU`
2.01

Value lookup for normalized RNA/DNA level with ligand (log10); key = `UCUUUA`
2

Value lookup for normalized RNA/DNA level with ligand (log10); key = `CCGGAU`
2.05

Value lookup for normalized RNA/DNA level with ligand (log10); key = `CUCCCU`
2.05

Value lookup for normalized RNA/DNA level with ligand (log10); key = `CGUCUG`
2.01

Value lookup for normalized RNA/DNA level with ligand (log10); key = `AAUGGU`
2

Value lookup for normalized RNA/DNA level with ligand (log10); key = `UAGUGA`
2

Value lookup for normalized RNA/DNA level with ligand (log10); key = `GUAUGU`
2

Value lookup for normalized RNA/DNA level with ligand (log10); key = `ACCUAC`
2.02

Value lookup for normalized RNA/DNA level with ligand (log10); key = `AAGUCU`
2.07

Value lookup for normalized RNA/DNA level with ligand (log10); key = `CGAGAA`
2.01

Value lookup for normalized RNA/DNA level with ligand (log10); key = `CGCAUU`
1.99

Value lookup for normalized RNA/DNA level with ligand (log10); key = `GGUCUU`
2.01

Value lookup for normalized RNA/DNA level with ligand (log10); key = `UGCAAU`
1.97

Value lookup for normalized RNA/DNA level with ligand (log10); key = `AGAACA`
2.02

Value lookup for normalized RNA/DNA level with ligand (log10); key = `GCCAUU`
2.01

Value lookup for normalized RNA/DNA level with ligand (log10); key = `ACAUAC`
1.99

Value lookup for normalized RNA/DNA level with ligand (log10); key = `CAUGAC`
2

Value lookup for normalized RNA/DNA level with ligand (log10); key = `GUUUGA`
2.05

Value lookup for normalized RNA/DNA level with ligand (log10); key = `UUGAUC`
2.01

Value lookup for normalized RNA/DNA level with ligand (log10); key = `AGCUGA`
2.03

Value lookup for normalized RNA/DNA level with ligand (log10); key = `UACCAG`
1.96

Value lookup for normalized RNA/DNA level with ligand (log10); key = `CGCAUG`
2.01

Value lookup for normalized RNA/DNA level with ligand (log10); key = `GUGGCG`
2.02

Value lookup for normalized RNA/DNA level with ligand (log10); key = `GACCCA`
2

Value lookup for normalized RNA/DNA level with ligand (log10); key = `UGACAC`
2.01

Value lookup for normalized RNA/DNA level with ligand (log10); key = `GUUCUU`
2.04

Value lookup for normalized RNA/DNA level with ligand (log10); key = `GGACGG`
2.04

Value lookup for normalized RNA/DNA level with ligand (log10); key = `CGUCAC`
1.99

Value lookup for normalized RNA/DNA level with ligand (log10); key = `GGGGUA`
1.99

Value lookup for normalized RNA/DNA level with ligand (log10); key = `UCUAAG`
2

Value lookup for normalized RNA/DNA level with ligand (log10); key = `GCGGGU`
2.02

Value lookup for normalized RNA/DNA level with ligand (log10); key = `ACGAGG`
1.99

Value lookup for normalized RNA/DNA level with ligand (log10); key = `UCCACU`
2.05

Value lookup for normalized RNA/DNA level with ligand (log10); key = `GUAGGU`
2.04

Value lookup for normalized RNA/DNA level with ligand (log10); key = `UCGGCG`
2.05

Value lookup for normalized RNA/DNA level with ligand (log10); key = `GUCGAA`
2.02

Value lookup for normalized RNA/DNA level with ligand (log10); key = `ACCGGA`
2.04

Value lookup for normalized RNA/DNA level with ligand (log10); key = `GUAGAG`
1.98

Value lookup for normalized RNA/DNA level with ligand (log10); key = `GAUACC`
2.03

Value lookup for normalized RNA/DNA level with ligand (log10); key = `UAAAUG`
1.95

Value lookup for normalized RNA/DNA level with ligand (log10); key = `CAGGAU`
1.97

Value lookup for normalized RNA/DNA level with ligand (log10); key = `CCAGCG`
1.99

Value lookup for normalized RNA/DNA level with ligand (log10); key = `GGCAGU`
2.01

Value lookup for normalized RNA/DNA level with ligand (log10); key = `CAAAAA`
1.96

Value lookup for normalized RNA/DNA level with ligand (log10); key = `CUAGGC`
2

Value lookup for normalized RNA/DNA level with ligand (log10); key = `GAGAAU`
2.02

Value lookup for normalized RNA/DNA level with ligand (log10); key = `CAACGU`
2.04

Value lookup for normalized RNA/DNA level with ligand (log10); key = `CUACUA`
2.05

Value lookup for normalized RNA/DNA level with ligand (log10); key = `AUUCAC`
1.99

Value lookup for normalized RNA/DNA level with ligand (log10); key = `GCUGAC`
2.01

Value lookup for normalized RNA/DNA level with ligand (log10); key = `UGAUUA`
2.01

Value lookup for normalized RNA/DNA level with ligand (log10); key = `GGGUCU`
2.06

Value lookup for normalized RNA/DNA level with ligand (log10); key = `AGCGGC`
2.05

Value lookup for normalized RNA/DNA level with ligand (log10); key = `AACGCU`
2

Value lookup for normalized RNA/DNA level with ligand (log10); key = `UUGCUU`
2.04

Value lookup for normalized RNA/DNA level with ligand (log10); key = `ACACUA`
2.01

Value lookup for normalized RNA/DNA level with ligand (log10); key = `UUGCAG`
2

Value lookup for normalized RNA/DNA level with ligand (log10); key = `GAUCUA`
2.03

Value lookup for normalized RNA/DNA level with ligand (log10); key = `UUUUAU`
2.02

Value lookup for normalized RNA/DNA level with ligand (log10); key = `UCAACA`
2.02

Value lookup for normalized RNA/DNA level with ligand (log10); key = `CCCAGC`
2.06

Value lookup for normalized RNA/DNA level with ligand (log10); key = `CCAUUA`
2

Value lookup for normalized RNA/DNA level with ligand (log10); key = `AAUUCC`
2.04

Value lookup for normalized RNA/DNA level with ligand (log10); key = `CCGUUG`
2.04

Value lookup for normalized RNA/DNA level with ligand (log10); key = `AGCGGA`
2.02

Value lookup for normalized RNA/DNA level with ligand (log10); key = `GACGUU`
2.01

Value lookup for normalized RNA/DNA level with ligand (log10); key = `CGGUAA`
1.99

Value lookup for normalized RNA/DNA level with ligand (log10); key = `AGACGA`
2.02

Value lookup for normalized RNA/DNA level with ligand (log10); key = `AUCCUC`
2.02

Value lookup for normalized RNA/DNA level with ligand (log10); key = `GACAGU`
2

Value lookup for normalized RNA/DNA level with ligand (log10); key = `AUGCUU`
2.04

Value lookup for normalized RNA/DNA level with ligand (log10); key = `CGGGUU`
2

Value lookup for normalized RNA/DNA level with ligand (log10); key = `AGCGUU`
2.02

Value lookup for normalized RNA/DNA level with ligand (log10); key = `CCGGCA`
2.05

Value lookup for normalized RNA/DNA level with ligand (log10); key = `CGCACU`
2.01

Value lookup for normalized RNA/DNA level with ligand (log10); key = `CCCUCA`
2.04

Value lookup for normalized RNA/DNA level with ligand (log10); key = `CACGUG`
2.05

Value lookup for normalized RNA/DNA level with ligand (log10); key = `CAUUGA`
2.01

Value lookup for normalized RNA/DNA level with ligand (log10); key = `CGCCUU`
2.01

Value lookup for normalized RNA/DNA level with ligand (log10); key = `UCCUUC`
2.05

Value lookup for normalized RNA/DNA level with ligand (log10); key = `GUCACA`
2

Value lookup for normalized RNA/DNA level with ligand (log10); key = `CAAAAC`
1.99

Value lookup for normalized RNA/DNA level with ligand (log10); key = `CCCCUG`
2.05

Value lookup for normalized RNA/DNA level with ligand (log10); key = `AGCGAG`
2

Value lookup for normalized RNA/DNA level with ligand (log10); key = `AGUCAA`
1.96
